System: M19-MEL melanoma
protocol.notes: NCI tumour cell line growth inhibition, 48 h
readout.kind: TGI (µM)
Form entry: value (µM) — number only.

Some molecules with recorded TGI:
molecule	result.unit	quantitative.result
FC(F)(F)C1(Br)C(c2ccccc2)=C1c1ccccc1	µM	30
Cc1c(C(=O)/C=C/c2ccccc2O)c(=O)n(-c2ccccc2)n1C	µM	74.6
O=C1C=CC(=O)c2cc(Sc3ccccc3)c(=O)ccc21	µM	35.3

// next item, TGI requested
Input line: Form field: reported TGI of CC(C)(C)C1CCC2c3c([nH]c4ccccc34)C3C(=O)N(c4ccccc4)C(=O)C3C2C1 (centres undefined)
Output line: 23.7
